Where do the numbers come from? From PubChem BioAssay (NCATS).

Test system: MKL-2
method.summary: qHTS assay to identify novel small-molecules to repurpose for Merkel cell carcinoma treatment (AID 1296009); note: nearly all actives have a fitted effect of over 60% in size
condition.set: MCC and control cell lines, CellTiter-Glo viability, 72 h; series mostly up to 46 µM
Results filed as inconclusive are left out. Active and inactive are the calls of the source. Calls come from the whole dose curve; as a rule, active = well fitted inhibition curve with a large enough effect; inconclusive = small, poorly fitted or top-dose-only effect; inactive = flat fitted curve, though single readings scatter.
Your answer must be one of the following: 1 (active), -1 (inactive)

The following molecules have reported results that may help.
molecule: O=c1cc[nH]c(=S)[nH]1
group: -1

molecule: C[C@@H]1C[C@H]2[C@@H]3C[C@H](F)C4=CC(=O)C=C[C@]4(C)[C@@]3(F)[C@@H](O)C[C@]2(C)[C@@]1(O)C(=O)CO
group: -1

molecule: CCCCN(CCCC)CCCOC(=O)c1ccc(N)cc1
group: -1

molecule: CC(C)c1c(C(=O)Nc2ccccc2)c(-c2ccccc2)c(-c2ccc(F)cc2)n1CC[C@@H](O)C[C@@H](O)CC(=O)O
group: 1

molecule: CN1CCC[C@@H]1Cc1c[nH]c2ccc(CCS(=O)(=O)c3ccccc3)cc12
group: -1

input: So what was the verdict on `O=Cc1ccccc1C=O` in this test?
output: -1

input: So what was the verdict on CC(O)CN(CCN(CC(C)O)CC(C)O)CC(C)O (stereo not drawn) in this test?
output: -1

input: So what was the verdict on `CCC(=O)c1ccc(O)cc1` in this test?
output: -1

----------
method.summary: S16 Schwann cell viability assay (CellTiter-Glo assay) (AID 624031); note: nearly all actives have a fitted effect of over 70% in size
condition.set: S16 rat Schwann cells viability, 24 h; series mostly up to 57.5 µM
Records with an inconclusive call do not appear. Calls of active or inactive are those of the source. Calls follow the shape of the dose curve; as a rule, active = well fitted cell-killing curve with a large enough effect; inconclusive = small, poorly fitted or top-dose-only effect, or effect the other way; inactive = flat fitted curve, though single readings scatter.
Your answer must be one of the following: active, inactive

compound: CN(C)CCCN1c2ccccc2Sc2ccc(Cl)cc21
group: active

input: So what was the verdict on `CC12CCC(CC1)C(C)(C)O2` in this test?
output: inactive

input: So what was the verdict on `COc1cc2[nH]c(=O)[nH]c(=O)c2cc1OC` in this test?
output: inactive

input: So what was the verdict on `O=S(=O)(O)c1cc(I)c(O)c2ncccc12` in this test?
output: inactive

input: So what was the verdict on `O=C(CCCN1CCN(c2ccccn2)CC1)c1ccc(F)cc1` in this test?
output: inactive

input: So what was the verdict on `NC1CCN(c2cccc(Cl)n2)CC1` in this test?
output: inactive

----------
Tested on: TAB165
method.summary: qHTS profiling for inhibitors of Plasmodium falciparum proliferation (AID 504749); note: nearly all actives have a fitted effect of over 60% in size
condition.set: P. falciparum in erythrocytes, SYBR Green DNA, 72 h; series mostly up to 28.7 µM
Protocol: NIH National Institute of Allergy and Infectious Diseases [NIAID] NIH Chemical Genomics Center [NCGC] […] Because mature erythrocytes lack DNA, only Plasmodium-derived DNA is detected. NCGC Assay Protocol Summary: The SYBR Green viability assay was adapted from a method described previously (Plouffe et al., 2008). […] The following morning, fluorescence intensity at 485(14) nm excitation and 535(25) nm emission wavelengths was measured on an EnVision (Perkin Elmer) plate reader. […]
Results filed as inconclusive are left out. Activity calls are given as the source filed them. Calls follow the shape of the dose curve; as a rule, active = well fitted inhibition curve with a large enough effect; inconclusive = small, poorly fitted or top-dose-only effect; inactive = flat fitted curve, though single readings scatter.
Your answer must be one of the following: active, inactive

The following compounds have reported results that may help.
compound: Cc1cccc(Nc2cc(Cl)nc(SCC(=O)O)n2)c1C
group: inactive

compound: O=C(O)CN1C(=O)c2cccc3cccc(c23)C1=O
group: inactive

compound: CCCCN(CCCC)CCCOC(=O)c1ccc(N)cc1
group: inactive

compound: NC(=O)NNc1ccccc1
group: inactive

compound: Nc1ccc(S(=O)(=O)Nc2ccccc2)cc1
group: inactive

input: So what was the verdict on `CCN(CC)CCNC(=O)c1c(C)[nH]c(/C=C2\C(=O)Nc3ccc(F)cc32)c1C` in this test?
output: active

input: So what was the verdict on `CNC(=O)Oc1ccc2c(c1)[C@]1(C)CCN(C)[C@@H]1N2C` in this test?
output: active

----------
method.summary: Validation screen for small molecules that induce genotoxicity in human embryonic kidney (HEK293T) cells expressing luciferase-tagged ELG1 (AID 493106); note: 0% is about no effect
condition.set: luminescence; series mostly up to 46.1 µM
Inconclusive results are not listed. The source made the active and inactive calls. Calls come from the whole dose curve; as a rule, active = well fitted activation curve with a large enough effect; inconclusive = small, poorly fitted or top-dose-only effect; inactive = no such curve, though single readings can be large or run the other way.
Your answer must be one of the following: active, inactive

The following molecules have reported results that may help.
molecule: CC(=O)OCC(=O)[C@@]1(O)CC[C@H]2[C@@H]3CCC4=CC(=O)CC[C@]4(C)[C@H]3C(=O)C[C@@]21C
group: inactive

molecule: CSc1ccc2c(c1)N(CCC1CCCCN1C)c1ccccc1S2 (centres undefined)
group: inactive

molecule: C#CCN(C)Cc1ccccc1
group: inactive

molecule: CC(C)(C(=O)O)c1ccc(C(O)CCCN2CCC(C(O)(c3ccccc3)c3ccccc3)CC2)cc1 (centres undefined)
group: inactive

molecule: CN(C)CCOC(C)(c1ccccc1)c1ccccn1 (centres undefined)
group: inactive

molecule: CNCC(O)c1ccc(O)c(O)c1 (centres undefined)
group: inactive

molecule: C[C@]12CC[C@@H]3c4ccc(O)cc4CC[C@H]3[C@@H]1CCC2=O
group: inactive

molecule: CCN(CC)CCNC(=O)c1cc(Cl)c(N)cc1OC
group: inactive

molecule: OCCN1CCN(CCCN2c3ccccc3Sc3ccc(Cl)cc32)CC1
group: inactive

molecule: COCCOC(=O)C1=C(C)NC(C)=C(C(=O)OC/C=C/c2ccccc2)C1c1cccc([N+](=O)[O-])c1 (centres undefined)
group: inactive

input: So what was the verdict on CN1CCN(C2Cc3ccccc3Sc3ccc(Cl)cc32)CC1 (centres undefined) in this test?
output: inactive

input: So what was the verdict on `NC(=O)c1ncn([C@@H]2O[C@H](CO)[C@@H](O)[C@H]2O)n1` in this test?
output: inactive

input: So what was the verdict on CNCCC(Oc1ccc(C(F)(F)F)cc1)c1ccccc1 (centres undefined) in this test?
output: inactive

----------
Tested on: HEK293
method.summary: Cytotoxic Profiling of Annotated Libraries Using Quantitative High-Throughput Screening (AID 1296008); note: nearly all actives have a fitted effect of over 60% in size
condition.set: Five cell lines viability, CellTiter-Glo ATP luminescence, 48-72 h
Records with an inconclusive call do not appear. Active and inactive are the calls of the source. The call rests on the fitted dose curve; in most records, active means well fitted inhibition curve with a large enough effect; inconclusive means small, poorly fitted or top-dose-only effect; inactive means flat fitted curve, though single readings scatter.
Your answer must be one of the following: yes (1) = active, no (0) = inactive

The following compounds have reported results that may help.
compound: CN(C)CCCO[C@@H]1[C@H]2OC(C)(C)O[C@H]2O[C@@H]1C(O)CO (stereo partly drawn)
group: no (0)

compound: Cc1ccc(C(C)C)cc2c(C)ccc1-2
group: no (0)

compound: OCC(O)CN1CCN(c2ccccc2)CC1 (stereo not drawn)
group: no (0)

compound: CC1(C)[C@@H]2CC[C@@]1(C)C(=O)C2
group: no (0)

compound: Nc1ccc(S(=O)(=O)Nc2ccc(Cl)nn2)cc1
group: no (0)

compound: CCOc1ccc2ccccc2c1C(=O)N[C@@H]1C(=O)N2[C@@H]1SC(C)(C)[C@@H]2C(=O)O
group: no (0)

compound: C[C@]12C[C@H](O)[C@H]3[C@@H](CCC4=CC(=O)CC[C@@]43C)[C@@H]1CC[C@@H]2C(=O)CO
group: no (0)

compound: CC(O)CN(CCN(CC(C)O)CC(C)O)CC(C)O (stereo not drawn)
group: no (0)

compound: O=C(O)[C@H](O)c1ccccc1
group: no (0)

compound: O=C(O)c1ccccn1
group: no (0)

input: So what was the verdict on CC(C)(C(=O)O)c1ccc(C(O)CCCN2CCC(C(O)(c3ccccc3)c3ccccc3)CC2)cc1 (stereo not drawn) in this test?
output: no (0)

input: So what was the verdict on `CNC(=O)Oc1ccc2c(c1)[C@]1(C)CCN(C)[C@@H]1N2C` in this test?
output: no (0)

input: So what was the verdict on `Oc1cn2c(n1)Nc1ccc(Cl)c(Cl)c1C2` in this test?
output: no (0)

input: So what was the verdict on `O=c1cc[nH]c(=S)[nH]1` in this test?
output: no (0)

input: So what was the verdict on `NCC(=O)CCC(=O)O` in this test?
output: no (0)

input: So what was the verdict on NS(=O)(=O)c1cc2c(cc1C(F)(F)F)NC(Cc1ccccc1)NS2(=O)=O (stereo not drawn) in this test?
output: no (0)

----------
method.summary: AP1 Signaling Pathway (AID 357);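 note: ME-180 reporter cells stimulated with EGF at its EC50 level; % is set by controls: 0 for no effect and ±100 for the full control effect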
condition.set: ME-180 (cervical carcinoma) AP-1-bla reporter, EGF-induced, beta-lactamase ratio, 5 h; at 38 µM (top of the series)
Inconclusive results are not listed.
reported.metric: activity change, negative = inhibition (%)
State just the number; it will be interpreted in %.

substance.smiles: COc1ccc(Cl)cc1C(=O)NCCc1ccc(S(=O)(=O)NC(=O)NC2CCCCC2)cc1
activity change, negative = inhibition / %: -26.7

substance.smiles: OCCN1CCN(CCCN2c3ccccc3Sc3ccc(Cl)cc32)CC1
activity change, negative = inhibition / %: 7.4

input: I'd like to know its activity change, negative = inhibition. The compound in question is `CCCn1cnc2c1c(=O)n(CCCCC(C)=O)c(=O)n2C`
output: -2.42
